System: K4 kissing-loop RNA reporter;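 note: bound reporter read as fluorescence of individual clusters on recovered sequencing chips by microscopy, with normalized cluster intensities fitted with a binding model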
Assay: apparent KD of K4 kissing-loop reporter; higher = weaker reporter binding
Settings: Eterna round: R107; input ligand: FMN 200 uM
Give TRUE when the value for apparent KD of K4 kissing-loop reporter is at least 0.1 µM. Give FALSE when it is less.

Worked set:
## Task Is reported apparent KD of K4 kissing-loop reporter greater than or equal to 0.1 µM here: AAGUCUCGUUAAUUCGAGGUUGCGAUCGAUACCAGUAGCGAGAGGUACCCUUGGCAGCGAAGUGAGUGAUGUUCAUGAAAGAAGA [KL-XTheoA13]
## Result FALSE

## Task Is reported apparent KD of K4 kissing-loop reporter greater than or equal to 0.1 µM here: GCAUCCUAGUCGGCCGCCACUAACAUGAGUGAUGUUCAUGUACGUCAGUGAUGUUGACGUAGUUAUAGGACCGGGACUAGGAUGC [KL-SSTryp-B7 Brourdwalk3]
## Result TRUE

## Task Is reported apparent KD of K4 kissing-loop reporter greater than or equal to 0.1 µM here: GCCCUCUUAACGGCCGCCACUAUAUUUAUGAUCUCUAGUAAGUGAUGUUUACUCCGGCUUAUAGGUAGGACCGGGUUAUUAUCUU [theeternabot_sameState_KL_Trp_B_39]
## Result TRUE

New cases:
## Task Is reported apparent KD of K4 kissing-loop reporter greater than or equal to 0.1 µM here: GGAUUUGAAAGUGAGUGAUGUUCAUGUUGUGAGGAUAUGUAGAGAUAUAGAAGGCACGUUUGUAUUUUUUUUGUGUGAGAUUAAA [Last Minute #1]
## Result FALSE

## Task Is reported apparent KD of K4 kissing-loop reporter greater than or equal to 0.1 µM here: CGCUGGAGUGAUGUUCCAGCUUCUACGGAUACCAGCCACGCCAGCGGCCCUUGGCAGCCGCAAAUUGCAGUGAUGUUGUGAUGCC [Same State Theophylline A GF 4]
## Result TRUE

## Task Is reported apparent KD of K4 kissing-loop reporter greater than or equal to 0.1 µM here: GGCCCGGGCUCGGCCGCCACUCCCUCGUACCGCAAGGUAUGAUACCGAGUGAUGUUCGGUUGGAGGAGGACCGGGAGCCCGGGCC [#2 Exclusion - Tryptophan B Attempt #6 (HarryS)]
## Result TRUE

## Task Is reported apparent KD of K4 kissing-loop reporter greater than or equal to 0.1 µM here: GGAUAGGAUAGAGGAUAUGGUUUAGGCAAGAAUAACUUGUCAUGUAAAUCCAUGAGGAGUGAUGUUCCAGAAGGCUGUCCUAUCG [MatMod 8 - Jieux - Exclusion - FMN B]
## Result TRUE

## Task Is reported apparent KD of K4 kissing-loop reporter greater than or equal to 0.1 µM here: AGAAGGAGACUUGCAACGACUCCUUCAGACUAGGAUAUCAGGAAACUGAGAAGGAGUCUACUUGCAGUGAUGUUGCAAGAAUAAU [[F]''-[K]'-[F]'-[F1]-[F2]-[K1]-[K2]_Design3]
## Result TRUE

## Task Is reported apparent KD of K4 kissing-loop reporter greater than or equal to 0.1 µM here: UUGUUUGGUUGAGAGGUUGGGCGAGAUGAUACCAGUAGAGAAGAGUACCCUUGGCAGCAUAGGAGAGAUAUAGUGAUGUUGUAUA [SSTheophA.R]
## Result TRUE

## Task Is reported apparent KD of K4 kissing-loop reporter greater than or equal to 0.1 µM here: ACGUGCACCAGUGAUGUUGGAAAAUAUGAAGGAGCGGGAGAAAACCCAGGUAGGUCGCAUAAUUGCACGAGCCACGAAAGUGGCA [#15 K4 Arginine A Same State]
## Result FALSE

## Task Is reported apparent KD of K4 kissing-loop reporter greater than or equal to 0.1 µM here: GCAGGAUGAGGAGGAGGAUGAAUUACUGAAGGAGCGCAUAUUUUUGCAGGUAGGUCGCGGUAAAGAAGUAUAGUGAUGUUAUAUA [SSArgA.K]
## Result TRUE

* * *

Test system: MS2 coat protein
Experiment: apparent KD of MS2 coat protein; designed switch direction (-1 OFF switch, 1 ON switch): -1; higher = weaker reporter binding
Settings: Eterna round: R95; input ligand: microRNA oligo, concentration not stated
Reported apparent KD of MS2 coat protein values for the following sequences.
The answer is to be given in nM; state only the numeric part.

Solved cases (4 shown):
## Task Give the value of apparent KD of MS2 coat protein reported for the following: GGUUGACAUGAGGAUCACCCAUGUGAGGAUAUGCGAGAGAAAAAAGUGAGGAAGGUUUGCAGAAGGCGCUGUCG [salish99-ex1_r3_008] (puzzle: Exclusion 1)
## Result 115

## Task Give the value of apparent KD of MS2 coat protein reported for the following: AAAGAGCGAGGAUAUACGUAUCGGUGCGGCCAGCCGAUGUGACAUGAGGAUCACCCAUGUAGAAGGCGCAGAAA [Excls2-IX] (puzzle: Exclusion 2)
## Result 23.4

## Task Give the value of apparent KD of MS2 coat protein reported for the following: UUUAGUAUCUAGGAUAUCUAGUACAUAGUAUCUAGAGAAGGAGAUACAUGAGGAUCACCCAUGUUCUGUGAUCU [Exclusion 6 - 2:b] (puzzle: Exclusion 6)
## Result 118

## Task Give the value of apparent KD of MS2 coat protein reported for the following: AGUACUAACACGAUAGUGUUAGUACUAUAAGCUUGUGUUACAUGAGGAUCACCCAUGUCCUCAUAAGCUCGUCUUGA [Mat - Sensor v3 - Turn-off var 2 - D92] (puzzle: Sensor v3, turn-off variant 2)
## Result 467

New cases:
## Task Give the value of apparent KD of MS2 coat protein reported for the following: UUUAAUUUUUUUUUUUUACAAGCUUUUUGCUCGUCUUAUACAUGAGGAUCACCCAUGUGGGUGGGAGAUAAAUUAUC [JMF 24] (puzzle: Sensor v3, turn-off variant 2)
## Result 59.3

## Task Give the value of apparent KD of MS2 coat protein reported for the following: AGUCUGCUAGGAUAUACAUGAGGAUCACCCAUGUCUAUCAAUAGACUAUUAACCUGGUGUAGAAGGAGCUUGUA [Onatlacein] (puzzle: Exclusion 3)
## Result 11.1

## Task Give the value of apparent KD of MS2 coat protein reported for the following: AGAGUACAUGAGGAUCACCCAUGUUAGGAUAUGCAUAAUAAGAAGAAGAGAAGAGAGAGCAGAAGGAACAAGAG [Ex 1 M1] (puzzle: Exclusion 1)
## Result 48

## Task Give the value of apparent KD of MS2 coat protein reported for the following: AGAAAACGAGGAUAUACGUGCAUAUUCUCGCCCAAUGGGCAACAUGAGGAUCACCCAUGUAGAAGGCGUAAAGA [Dienoror] (puzzle: Exclusion 2)
## Result 34.6

## Task Give the value of apparent KD of MS2 coat protein reported for the following: GACAAGGGAGGAUAUGCACAAGGGAUAUCUGACAUGCCGUUACAUGAGGAUCACCCAUGUAGAAGGCCCGAAUA [Didiin] (puzzle: Exclusion 2)
## Result 13.3

## Task Give the value of apparent KD of MS2 coat protein reported for the following: AGUAACAGAGGAUAUACUAUUUUAUGUGUUUGUUAUUUUAAACAUGAGGAUCACCCAUGUAGAAGGCUGAAUGA [JMF 100] (puzzle: Exclusion 2)
## Result 23.5

## Task Give the value of apparent KD of MS2 coat protein reported for the following: UCUCGACAUGAGGAUCACCCAUGUCAGGAUAUUGUGUUUUGGGUUUUUUACCUUUUGGCAAGAAGGGAUGUGUG [LRO-Excl1-20] (puzzle: Exclusion 1)
## Result 20.4

## Task Give the value of apparent KD of MS2 coat protein reported for the following: AUGUGGGUAUGAAGGUGUAGAUAGAGCGUACGUUAUGGAACAUGAGGAUCACCCAUGUAGCUUUUUGCUCGUCUUAU [JR_SV3TOV2_Sub034] (puzzle: Sensor v3, turn-off variant 2)
## Result 40.9

## Task Give the value of apparent KD of MS2 coat protein reported for the following: GGUUGGCGAGGAUAUACAUGAGGAUCACCCAUGUGAGAGAGAAAAGUGAGAACGAAAAGUAGAAGGCGCUGACG [salish99_ex3_r3_061] (puzzle: Exclusion 3)
## Result 65.6

## Task Give the value of apparent KD of MS2 coat protein reported for the following: UAAGUGUGAGGAUAUGGUAAAGAUAGAAUGAUGAAAGAACUCCAGAAGGCACAUGAGGAUCACCCAUGUAGAUG [Mat - Exclusion 4 - Mod of JL - D24] (puzzle: Exclusion 4)
## Result 30.8

## Task Give the value of apparent KD of MS2 coat protein reported for the following: UUUAAUUUUUUUUUUUUACAAGCUUUUUGCUCGUCUUAUACAUGAGGAUCACCCAUGUGGGUGAAGGAUAAAUUAUC [JMF 26] (puzzle: Sensor v3, turn-off variant 2)
## Result 36.2

## Task Give the value of apparent KD of MS2 coat protein reported for the following: AAAUUCUGAGGAUAUCGAUGUUUGUACAUGAGGAUCACCCAUGUCCUUUUUAUUUUUUCCCGAGAAGGCAGUGUAU [JR_E5_Sub099] (puzzle: Exclusion 5)
## Result 36.6

## Task Give the value of apparent KD of MS2 coat protein reported for the following: GAAAAGGUAGGAUAUACGAAAAAAAAGGGUAGGAAAAAAACACAUGAGGAUCACCCAUGUAGAAGGACCAAAAG [salish99_ex2_r3_024] (puzzle: Exclusion 2)
## Result 21.8

## Task Give the value of apparent KD of MS2 coat protein reported for the following: GAGAAGGUAGGAUAUACGAAGAAAGAGGGUAGGAAGAAGACACAUGAGGAUCACCCAUGUAGAAGGACCAAGAG [Mat - Exclusion 2 - Mod of my Tesla design - D48] (puzzle: Exclusion 2)
## Result 13.9

## Task Give the value of apparent KD of MS2 coat protein reported for the following: AGUUGGCGAGGAUAUACAUGAGGAUCACCCAUGUGAAGAAGAAGAGUGAGGAAGAAAAGUAGAAGGCGCUGACA [Mat - Exclusion 3 - Mod of Salish D38] (puzzle: Exclusion 3)
## Result 84

## Task Give the value of apparent KD of MS2 coat protein reported for the following: GAGUGACAUGAGGAUCACCCAUGUGAGGAUAUCGGACGGACCAAAUUAACAAUAGAAGCGAGAAGGCACAUAAG [Exclusion 1 V11] (puzzle: Exclusion 1)
## Result 74.3

## Task Give the value of apparent KD of MS2 coat protein reported for the following: AUGGUACAUGAGGAUCACCCAUGUUAGGAUAUCGCGUGACCUAAAACUAAGAGACACACGAGAAGGGACGACAU (puzzle: Exclusion 1)
## Result 77.3
